system: NCI-H1355; test: relative viability (nuclei count vs DMSO), 5 days (fraction); higher = more cells survive; settings: first compound 0.01 µM
Reported relative viability values are given for each entry in this list.
When you answer, write just the number.

INSERT INTO measurements (compound, recorded_measurement) VALUES
  ('Cc1cn(-c2cc(NC(=O)c3ccc(C)c(Nc4nccc(-c5cccnc5)n4)c3)cc(C(F)(F)F)c2)cn1 [Nilotinib] + O=C(CCCCCCC(=O)Nc1ccccc1)NO [Vorinostat] (partner 1 µM)', 0.67);

Task: I'd like to know its relative viability. The compound in question is Cc1cn(-c2cc(NC(=O)c3ccc(C)c(Nc4nccc(-c5cccnc5)n4)c3)cc(C(F)(F)F)c2)cn1 [Nilotinib] + CS(=O)(=O)N1CCN(Cc2cc3nc(-c4cccc5[nH]ncc45)nc(N4CCOCC4)c3s2)CC1 [Pictilisib] (partner 1 µM)
Result: 0.371

Task: What do you get for Cc1cn(-c2cc(NC(=O)c3ccc(C)c(Nc4nccc(-c5cccnc5)n4)c3)cc(C(F)(F)F)c2)cn1 [Nilotinib] + Cc1nc(NC(=O)N2CCC[C@H]2C(N)=O)sc1-c1ccnc(C(C)(C)C(F)(F)F)c1 [Alpelisib] (partner 2 µM) ?
Result: 0.974

Task: What do you get for Cc1cn(-c2cc(NC(=O)c3ccc(C)c(Nc4nccc(-c5cccnc5)n4)c3)cc(C(F)(F)F)c2)cn1 [Nilotinib] + COc1cc2c(Oc3ccc(NC(=O)C4(C(=O)Nc5ccc(F)cc5)CC4)cc3F)ccnc2cc1OCCCN1CCOCC1 [Foretinib] (partner 0.25 µM) ?
Result: 1.25
